Where these numbers come from: ChEMBL document CHEMBL4428041

Tested on: Ferriprotoporphyrin IX
Test: Binding affinity to Fe(3)PP9 solution assessed as ferriprotoporphyrin 9 complex formation by measuring compound concentration causing pink precipitate formation at <=5500 uM
The source made the active and inactive calls. The calls are words filed in the database; no cut-off is given here.
Endpoint: Activity

>  <Substance smiles>
O=C(Nc1ccncc1)c1ccc(Cl)c(Cl)c1

>  <Activity>
700 to 1300 µM

$$$$
>  <Substance smiles>
COc1ccc(C(=O)Nc2ccncc2)cc1

>  <Activity>
inactive

$$$$
>  <Substance smiles>
O=C(Nc1ccncc1)c1cccc(Cl)c1

>  <Activity>
1300 to 2300 µM

$$$$
>  <Substance smiles>
O=C(Nc1ccncc1)c1ccccc1

>  <Activity>
inactive

$$$$
>  <Substance smiles>
O=C(Nc1ccncc1)c1ccc([N+](=O)[O-])cc1

>  <Activity>
inactive

$$$$
>  <Substance smiles>
Cc1ccc(C(=O)Nc2ccncc2)cc1

>  <Activity>
inactive

$$$$
>  <Substance smiles>
O=C(Nc1ccncc1)c1ccc(Cl)cc1

>  <Activity>
4500 to 5500 µM

$$$$
>  <Substance smiles>
O=C(Nc1ccncc1)c1cccc(C(F)(F)F)c1

>  <Activity>
1300 to 2300 µM

$$$$
>  <Substance smiles>
O=C(Nc1ccncc1)c1ccc([N+](=O)[O-])cc1[N+](=O)[O-]

>  <Activity>
inactive

$$$$

Here is the next item to consider.
Which Activity is reported for this compound? `O=C(Nc1ccccc1)c1ccc([N+](=O)[O-])cc1`
inactive
